Let's look at some compounds and their measured TGI.
Test system: K-562 leukemia
protocol.text: NCI tumour cell line growth inhibition, 48 h

Examples with their reported TGI follow.
CC(=O)[CH-]C(=O)c1ccccc1.CC(=O)[CH-]C(=O)c1ccccc1.[Eu+3].[OH-].[OH3+] : > 100 µM
COc1cc2c3c(n(CCCN)c(=O)c2cc1OC)-c1cc2c(cc1/C3=C\CCN)OCO2 : > 40.4 µM
CCOC(=O)c1[nH]c(Br)c(-c2ccc(Br)cc2)c1Br : 1.12 µM

Data request: Request the reported TGI associated with CC(C)(C)c1cc(-c2cc(C(C)(C)C)n(-c3ccccc3)n2)nn1-c1ccccc1
Data returned: > 100 µM

Data request: If you can, please state the reported TGI value of Cc1cc(S(N)(=O)=O)c(S/C(CC(C)C)=N\Nc2ccc([N+](=O)[O-])cc2)cc1Cl .
Data returned: 97 µM

Data request: Any idea what TGI was measured for CCOc1ccc(-c2nonc2NC(=O)c2cccc(C)c2)cc1OCC ?
Data returned: > 100 µM
